Test system: NCI-H23 lung
Assay: NCI-60 one-dose screen, 48 h
Details: 10 µM unless noted
This is part of a sample that, as a whole, favours compounds with a hit. Of some 83,000 tested, about 20% had one in any assay. Active and inactive are the calls of the source. The calls were made as follows: active = growth percent below 10; inactive = the rest.
The reply should be one of these categories: active, inactive

Please review the entries below; each comes with its answer.
compound	class.assignment
NNC(=O)C1CC2c3ccccc3C1c1ccccc12 (stereo unspecified)	inactive
COc1cc(/C=C2\CCC/C(=C\c3ccc(OCC4CO4)c(OC)c3)C2=O)ccc1OCC1CO1 (stereo unspecified)	inactive
CC(c1ccccn1)C(C)(O)C(C)c1ccccn1 (stereo unspecified)	inactive
CCOC(=O)c1c2c(c(C)n1Cc1ccccc1)-c1nc(N)ncc1CC2	inactive
CCOC(=O)c1c(NC(=O)C2CCCCC2C(=O)O)sc2c1CCCC2 (stereo unspecified)	inactive
O=c1ccn(C2CCCO2)c(=O)[nH]1 (stereo unspecified)	inactive
O=C(/C=C/c1cccnc1)/C=C/c1cccnc1	active
N#Cc1cccc(/C=C(/C(=O)c2ccccc2)c2ccccc2)c1	inactive

**Q:** Give the logged outcome of this assay for the following compound: COc1cc(/C=C2\COc3ccc(O)cc3C2=O)cc(OC)c1
**A:** inactive

**Q:** Status in this test for COc1cc(/C=C/C(=O)Nc2cccnc2Nc2cc(OC)c(OC)c(OC)c2)cc(OC)c1OC ?
**A:** inactive

**Q:** Assay result, entry COc1ccc2c(c1)/C(=C\c1c[nH]c3ccc(F)cc13)C(=O)N2 — outcome?
**A:** inactive

Cited source for all entries: PubChem BioAssay (NCI)
